Biological target: T1, Avi/His-HuIL18BPa (recombinant human IL-18BP isoform A with Avi and poly-His tags) (human, biotinylated with BirA on the Avi tag in some assays)
T1 construct: also called human IL-18BP-Avi-His
T1 chain: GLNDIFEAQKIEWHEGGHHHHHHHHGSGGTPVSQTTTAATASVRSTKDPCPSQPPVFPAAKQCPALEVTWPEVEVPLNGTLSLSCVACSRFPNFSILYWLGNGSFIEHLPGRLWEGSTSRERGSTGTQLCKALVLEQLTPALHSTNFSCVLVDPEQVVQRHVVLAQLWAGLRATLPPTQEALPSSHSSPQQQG
Assay: blocking ELISA, competitor human IL-18
MEASURED_ATTRIBUTE: blocking ELISA signal normalized to isotype control (=1)

Query: Find the measured blocking ELISA signal normalized to isotype control (=1) of anti-IL18BP antibody BP-06 (antibody, human IgG1, V domains shown) VH: QIQLQQSGPELVKPGASVKISCKASGYTFTDYYLNWVKQTPGQGLEWIGWIYPGSGNTKYTEKFKDKASLTVDTSSNTAYMQLSSLTSDDTAVYFCARRGVAWFAYWGQGTLVTVSA VL: DIKMTQSPSSIYASLGERVTITCKASQDINSYLSWFQQKPGKSPKTLIHRANRLVDGVPSRFSGSGSGQDYSLTISSLEYEDMGIYYCLQHDDFPPTFGAGTNLELK and report it.
Reply: 0.174 ratio to isotype control

Query: Find the measured blocking ELISA signal normalized to isotype control (=1) of anti-IL18BP antibody BP-13 (antibody, human IgG1, V domains shown) VH: QVQLQQSGAELVRPGASVTLSCKASGYTFTDYEMHWVKQTPVHGLEWIGPIDPETGDTAYNQKFKGQATLTADKSSSTAYMELSSLTSEDSAVYYCTRGSRGVFDYWGQGTALTVSS VL: DIVMTQSHKFMSTSVGDRVSITCKASQDVGTAVAWYQQKPGQSPKLLIYWASARHTGVPDRFTGSGSGTDFTLTISNVQSEDLADYFCQHYFNFPRTFGGGTKLEIT and report it.
Reply: 0.128 ratio to isotype control

Query: Find the measured blocking ELISA signal normalized to isotype control (=1) of anti-IL18BP antibody BP-04 (antibody, V domains shown, also called BP-04 (hybridoma); BP-04 (parental)) VH: HVHLHQSGAELVRPGVSVKISCRGSGYTFTDYDVHWVKQSHAKSLEWIGVISTYYGDVGYNQEFKGKATMTLDKSSSTSYLELARLTSEDSAIYYCARSGTYYYGTRESHALDYWGQGTSVTVSS VL: DIQMTQSPASLSVSVGETVTITCRTSDNVYSNLAWYQQKQGKSPQLLVYGAINLADGVPSRFSGSGSDTQYSLKINNLQSEDFGSYYCQHFWGNPYTFGGGTKLEIK and report it.
Reply: 0.165 ratio to isotype control
